Every entry's value here was drawn from PubChem BioAssay AID1259407.

- Tested on: CCRIS mutagenicity, Ames/micronucleus/aberration tests
- Protocol Summary: CCRIS mutagenicity studies
- Reported Conditions: Test System: AMES SALMONELLA TYPHIMURIUM; Strain/Indicator: TA1535; Metabolic Activation: NONE; Method: STANDARD PLATE
Activity calls are given as the source filed them. The rule behind the calls is not given here.

{"columns": ["Compound", "mutagenic call"],
 "data": [
  ["CCCCN(N=O)/C(C=O)=N/O", "active; positive"],
  ["O=c1[nH]c(=O)n([C@H]2C[C@H](O)[C@@H](CO)O2)cc1CCCl", "active; positive"],
  ["C1OC1C1CO1 (stereo not given)", "active; positive"],
  ["c1ccc(NNc2ccccc2)cc1", "inactive; negative"],
  ["CCCCCON=O", "active; positive"],
  ["CCCCCCCCCCCCCCCCCCO", "inactive; negative"],
  ["CC(Cc1ccc(O)c(O)c1)C(C)Cc1ccc(O)c(O)c1 (stereo not given)", "inactive; negative"],
  ["CCCCOc1ccc2nc3cc(Cl)ccc3c(NCCCNCCCl)c2n1", "inactive; negative"],
  ["O=C(Nc1ccc(Br)cc1)c1cc(Br)cc(Br)c1O", "inactive; negative"],
  ["CN(Cc1ccc(Br)cc1)N=O", "inactive; negative"],
  ["CCCCCCCCCCCC(=O)OOC(=O)CCCCCCCCCCC", "inactive; negative"],
  ["CCCCON=O", "active; positive"],
  ["COP(=O)(OC)C(O)C(Cl)(Cl)Cl (stereo not given)", "inactive; negative"],
  ["CN(C)CCCN1c2ccccc2CCc2ccccc21", "inactive; negative"],
  ["C1=CC2OC2C=C1 (stereo not given)", "inactive; negative"],
  ["O=[N+]([O-])c1c(-c2ccc(Cl)cc2)nc2sccn12", "inactive; negative"],
  ["CC(C)(c1ccc(OCC2CO2)cc1)c1ccc(OCC2CO2)cc1 (stereo not given)", "inactive; negative"],
  ["C=COc1ccccc1", "inactive; negative"],
  ["CN(Cc1ccc(Cl)cc1)N=O", "inactive; negative"],
  ["O=C1OC(O)C(CCl)=C1Cl (stereo not given)", "active; positive"],
  ["O=C(O)[C@H](O)[C@@H](O)C(=O)O", "inactive; negative"],
  ["NCCCNCCCCN(CCCN)/[N+]([O-])=N/O", "active; positive"],
  ["CN(C)c1ccc(Cc2ccc(N(C)C)cc2)cc1", "inactive; negative"],
  ["O=[N+]([O-])C1=Cc2cc3cc4ccccc4cc3c3cccc1c23", "inactive; negative"],
  ["O=[N+]([O-])C1=Cc2ccc3ccc4cccc5cc1c2c3c45", "inactive; negative"]
]}

* * *

- Tested on: CCRIS mutagenicity, Ames/micronucleus/aberration tests
- Protocol Summary: CCRIS mutagenicity studies
- Reported Conditions: Test System: AMES SALMONELLA TYPHIMURIUM; Strain/Indicator: TA1537; Metabolic Activation: NONE; Method: STANDARD PLATE
Activity calls are given as the source filed them. How the calls were made is not given here.
Labels: T for active, F for inactive

{"columns": ["Molecule", "Label Value"],
 "data": [
  ["CCCCCCCCCCCCCCCC(=O)OC/C=C(C)/C=C/C=C(C)/C=C/C1=C(C)CCCC1(C)C", "F"],
  ["ClCCNCCCNc1c2ccccc2nc2ccccc12", "T"],
  ["O=C1CN=C(c2ccccc2)c2cc([N+](=O)[O-])ccc2N1", "F"],
  ["O=P(O)(O)OCC(O)CO (stereo unspecified)", "F"],
  ["CC(=O)Nc1snc2ccc(Cl)cc12", "F"],
  ["C=C(C)C(=O)OCCCCOC(=O)C(=C)C", "F"]
]}
